- measurement protocol: Clearance in Sprague-Dawley rat at 1 mg/kg, iv
- Assay type: ADME, organism-based
- Parameters: dose 1 mg/kg, route intravenous
- particulars: in vivo
result type: clearance (mL/min/kg)

# chemical structure, result type, unit, readout value
data = [
    ("CCOc1cc(C2=NN(c3ccc(C#N)c(Cl)c3)[C@@H](C3CCCC3)C2)ccc1C(=O)O", "clearance", "mL/min/kg", 9.2),
]

###

- test target: Progesterone receptor (Homo sapiens)
- Sequence (P06401 whole entry): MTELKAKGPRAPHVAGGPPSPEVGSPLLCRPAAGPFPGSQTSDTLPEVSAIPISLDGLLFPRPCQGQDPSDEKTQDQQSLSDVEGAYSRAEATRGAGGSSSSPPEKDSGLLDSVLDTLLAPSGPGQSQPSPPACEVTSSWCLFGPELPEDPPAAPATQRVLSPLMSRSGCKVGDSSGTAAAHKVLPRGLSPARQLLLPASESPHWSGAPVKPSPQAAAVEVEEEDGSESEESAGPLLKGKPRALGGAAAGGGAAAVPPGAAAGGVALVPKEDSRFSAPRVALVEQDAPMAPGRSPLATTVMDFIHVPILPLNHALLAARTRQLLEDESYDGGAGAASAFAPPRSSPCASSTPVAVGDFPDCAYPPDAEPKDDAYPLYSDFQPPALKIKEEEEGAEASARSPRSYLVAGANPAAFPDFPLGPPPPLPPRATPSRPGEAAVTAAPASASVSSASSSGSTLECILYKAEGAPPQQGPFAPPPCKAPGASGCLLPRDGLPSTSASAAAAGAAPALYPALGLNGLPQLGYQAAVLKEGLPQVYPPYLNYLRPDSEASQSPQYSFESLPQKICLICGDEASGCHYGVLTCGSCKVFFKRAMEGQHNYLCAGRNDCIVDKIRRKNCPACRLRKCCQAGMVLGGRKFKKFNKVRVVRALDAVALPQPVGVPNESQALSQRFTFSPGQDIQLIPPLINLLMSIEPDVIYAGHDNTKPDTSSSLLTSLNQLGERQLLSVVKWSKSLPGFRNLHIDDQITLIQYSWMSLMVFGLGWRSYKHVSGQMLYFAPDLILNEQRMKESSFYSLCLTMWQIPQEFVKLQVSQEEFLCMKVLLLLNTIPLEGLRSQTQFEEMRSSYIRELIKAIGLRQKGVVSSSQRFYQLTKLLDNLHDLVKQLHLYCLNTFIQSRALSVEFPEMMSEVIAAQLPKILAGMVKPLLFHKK
- measurement protocol: Antagonist activity at progesterone receptor
// values below are reported IC50

# compound, unit, result modifier, IC50
rows = [
    ("Cc1cc(N2N=C3c4ccc(C(=O)O)cc4CO[C@@H]3[C@@H]2C2CCCC2)ccc1C#N", "nM", "=", 1880),
    ("N#Cc1ccc(N2N=C(c3ccc(C(=O)O)cc3)C[C@@H]2C2CCCC2)cc1Cl", "nM", ">", 4310),
    ("N#Cc1ccc(N2N=C3c4ccc(C(=O)O)cc4CC[C@@H]3[C@@H]2C2CCCC2)cc1 (racemic)", "nM", "=", 3180),
    ("N#Cc1ccc(N2N=C(c3ccc(C(=O)O)cc3)C[C@@H]2c2ccc(F)cc2)cc1Cl", "nM", "=", 2080),
]
